- Tested on: SF-539 CNS
- EXPERIMENTAL PROTOCOL: NCI-60 one-dose screen, 48 h (100 = growth as untreated, 0 = no growth, -100 = all killed)
- ASSAY CONDITIONS: 10 µM unless noted
This is part of a sample that, as a whole, favours compounds with a hit. Of some 83,000 tested, about 20% had one in any assay. Calls of active or inactive are those of the source. Rule for the calls: active = growth percent below 10; inactive = the rest.
The entries below come with measured growth values attached.

1. O=C(CNc1ccc(Cl)cc1)Nc1ccc(-c2nc3ccccc3s2)cc1 | 78.1% (inactive)
2. COc1cc(C2CC(c3c(C)[n+]([O-])c4ccccc4[n+]3[O-])=NN2)cc(OC)c1OC (stereo not given) | 124% (inactive)
3. COc1cc2oc(-c3cccc(NC(=O)Nc4ccc5c(c4)OCO5)c3)cc(=O)c2c(OC)c1OC | 81.8% (inactive)

Now turn to the next molecule.
Record request: growth value, item CCSc1nnc(NC(=O)Cc2ccc(Cl)cc2)s1
97.4% (inactive)

* * *

- System: A549/ATCC NSCLC
- EXPERIMENTAL PROTOCOL: NCI-60 one-dose screen, 48 h (100 = growth as untreated, 0 = no growth, -100 = all killed)
- ASSAY CONDITIONS: 10 µM unless noted
The panel holds about 83,000 compounds, 20% with a hit somewhere; the sample as a whole holds those more often.
MEASUREMENT KIND: growth (%)
# output: bare number, implied unit %

Example entries begin here.
1. CSc1nc(-c2cc3ccccc3o2)cc(-c2ccc(Cl)cc2)c1C#N | 32
2. c1cc(-c2ccc3c(c2)OCO3)n2nccc2n1 | 99.2
3. COc1cc(NCCCN=C(N)NC(N)=NC(C)C)c2ncccc2c1 | 78.6
4. Cc1cc2c(C(C)C)c(O)c(O)c(C=NCCCCC(=O)O)c2c(O)c1-c1c(C)cc2c(C(C)C)c(O)c(O)c(C=NCCCCC(=O)O)c2c1O | 49.1

Turning now to a further record.
Could you share which growth value was measured for O=C(Nc1ccc(F)cc1)c1cc([N+](=O)[O-])ccc1O ?
68.1

* * *

- System: TK-10 renal
- EXPERIMENTAL PROTOCOL: NCI-60 one-dose screen, 48 h
- ASSAY CONDITIONS: 10 µM unless noted
About 83,000 compounds went through this panel and 20% of them were active in at least one assay; those are over-represented in the sample as a whole. Activity calls are given as the source filed them. Rule for the calls: active = growth percent below 10; inactive = the rest.
Write down the outcome that applies. Available outcomes: true (1) (active), false (0) (inactive)

1) O=C(/C=C/CN1CCOCC1)Nc1cc2c(Nc3ccc(F)c(Cl)c3F)ncnc2cc1OCCOC(F)F | false (0)

Give the logged outcome of this assay for the following molecule: NS(=O)(=O)c1ccc(NCC(=O)Nc2ccc(-c3nc4ccccc4s3)cc2)cc1
false (0)

Another molecule to look at: COC(=O)c1ccc(C)cc1
true (1)

And for CCN1C(=O)N[C@H]2[C@@H]3NC(=O)c4ccc(Cl)n4[C@@H]3C[C@]21O ?
true (1)

Here is the next molecule: CCSc1nnc(NC(=O)COc2ccc(Cl)cc2C)s1
false (0)

Here is the next molecule: CC(C)C[C@H](NC(=O)Cn1ccc(NCc2ccccc2)cc1=O)B(O)O
true (1)

* * *

- System: A549/ATCC NSCLC
- EXPERIMENTAL PROTOCOL: NCI-60 one-dose screen, 48 h (100 = growth as untreated, 0 = no growth, -100 = all killed)
- ASSAY CONDITIONS: 10 µM unless noted
This is part of a sample that, as a whole, favours compounds with a hit. Of some 83,000 tested, about 20% had one in any assay.
# growth per entry
Numeric only. Scale: %

1. CC[C@]1(O)C[C@@H]2CN(Cc3c([nH]c4ccccc34)[C@@](C(=O)OC)(c3cc4c(cc3OC)N(C)[C@H]3[C@@](O)(C(=O)OC)[C@H](OC(C)=O)[C@]5(CC)[C@@H]6C[C@@H]6CN6CC[C@]43[C@@H]65)C2)C1 | 22.2
2. COc1cc(Cn2c(SCCC(=O)Nc3ccc(F)cc3)nc3ccccc3c2=O)cc(OC)c1OC | 83.5
3. CCCCCC/C=C\CCCCCCCCOc1ccc(CCOP(=O)(O)OCC[N+](C)(C)C)cc1 | 79

Value lookup for growth; key = CCCCCCC[C@@H](O)CC(=O)N[C@H](CCCCN)C(=O)N[C@H](Cc1c[nH]c2ccccc12)C(=O)NC(CCCCN)C(=O)N[C@H](CC(C)C)C(=O)N[C@H](Cc1ccccc1)C(=O)N[C@H](CCCCN)C(=O)N[C@H](CCCCN)C(=O)N[C@H](CC(C)C)C(=O)N1CCCC1C(=O)N[C@H](CCCCN)C(=O)N[C@H](Cc1ccccc1)C(=O)N[C@H](CC(C)C)C(=O)N[C@H](Cc1c[nH]cn1)C(=O)N[C@H](CC(C)C)C(=O)N[C@H](C)C(=O)N[C@H](CCCCN)C(=O)N[C@H](CCCCN)C(=O)N[C@H](Cc1ccccc1)C(=O)O (some centres undefined)
-47.3
